# measurement target: Cathepsin K (Homo sapiens)
# Sequence (P43235 whole entry): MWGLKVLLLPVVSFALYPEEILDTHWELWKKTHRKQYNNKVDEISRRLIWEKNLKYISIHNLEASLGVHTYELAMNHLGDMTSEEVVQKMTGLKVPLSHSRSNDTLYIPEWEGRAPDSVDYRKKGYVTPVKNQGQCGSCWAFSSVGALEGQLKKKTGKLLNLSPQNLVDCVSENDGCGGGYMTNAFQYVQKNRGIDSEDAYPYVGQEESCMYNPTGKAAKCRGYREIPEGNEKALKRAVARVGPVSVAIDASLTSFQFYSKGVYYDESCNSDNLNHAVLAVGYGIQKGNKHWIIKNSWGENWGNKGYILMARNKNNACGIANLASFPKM
# test: Inhibition of human cathepsin K
reported property: Ki (pM)
Answer with a number only, understood to be in pM.

Query string: Determine from records and report Ki for CC(C)(F)C[C@H](N[C@@H](c1ccc(-c2ccc(S(C)(=O)=O)cc2)cc1)C(F)(F)F)C(=O)NC1(C#N)CC1 [ODANACATIB]
Result string: 180
